tested on: methane production in rumen fluid; experiment: Rumen in vitro (RIV) assay, methane production from rumen fluid incubations; assay type: cell-based, cattle; conditions: Bos taurus, 10 μM; read-out: RIV % methane reduction +/− SD
Class definitions on inhibition at 10 µM: bottom bin: < 20%; middle bin: ≥ 20% and < 80%; top bin: ≥ 80%

>  <Compound>
CC(C)Cc1ccc(-c2ccc(C3=NN(C(=O)CCC(=O)O)C(c4ccc5nccnc5c4)C3)cc2)cc1 (stereo not shown)

>  <Measured target>
methane production in rumen fluid

>  <Label>
middle bin

$$$$
>  <Compound>
O=C(O)CCC(=O)N1N=C(c2cccc(-c3ccccc3)c2)CC1c1ccc2nccnc2c1 (stereo not shown)

>  <Measured target>
methane production in rumen fluid

>  <Label>
middle bin

$$$$
>  <Compound>
O=C(O)CCC(=O)N1N=C(c2ccc(-c3ccc4c(c3)OC(F)(F)O4)cc2)CC1c1ccc2nccnc2c1 (stereo not shown)

>  <Measured target>
methane production in rumen fluid

>  <Label>
middle bin

$$$$
>  <Compound>
O=C(O)CCC(=O)N1N=C(c2ccc(Cl)cc2)CC1c1cnc2ccccc2n1 (stereo not shown)

>  <Measured target>
methane production in rumen fluid

>  <Label>
bottom bin

$$$$
>  <Compound>
CN(C)S(=O)(=O)NC(=O)CCC(=O)N1N=C(c2ccc(Cl)cc2)CC1c1ccc2nccnc2c1 (stereo not shown)

>  <Measured target>
methane production in rumen fluid

>  <Label>
top bin

$$$$
>  <Compound>
Cc1ccc(-c2ccc(C3=NN(C(=O)CCC(=O)O)C(c4ccc5nccnc5c4)C3)cc2)cc1 (stereo not shown)

>  <Measured target>
methane production in rumen fluid

>  <Label>
middle bin

$$$$
>  <Compound>
CC(C)c1ccc(C2=NN(C(=O)CCC(=O)O)C(c3ccc4nccnc4c3)C2)cc1 (stereo not shown)

>  <Measured target>
methane production in rumen fluid

>  <Label>
bottom bin

$$$$
>  <Compound>
O=C(O)CCC(=O)N1N=C(c2ccc(-c3ccc(CC(F)(F)F)cc3)cc2)CC1c1ccc2nccnc2c1 (stereo not shown)

>  <Measured target>
methane production in rumen fluid

>  <Label>
top bin

$$$$

// query For CC(C)S(=O)(=O)NC(=O)CCC(=O)N1N=C(c2ccc(-c3ccccc3)cc2)CC1c1ccc2nccnc2c1 (stereo not shown) , which inhibition at 10 µM bin applies?
// result top bin

// query Which band does O=C(O)CCC(=O)N1N=C(c2ccc(-c3ccc(OC(F)(F)F)cc3)cc2)CC1c1ccc2nccnc2c1 (stereo not shown) fall in?
// result top bin

// query Exam item: assign O=C(O)CCCN1N=C(c2ccc(Cl)cc2)CC1c1ccc2nccnc2c1 (stereo not shown) to the correct category.
// result bottom bin

// query Which bin, given its inhibition at 10 µM, does O=C(O)CCC(=O)N1N=C(c2ccc(-c3ccccc3)c(F)c2)CC1c1ccc2nccnc2c1 (stereo not shown) occupy?
// result middle bin

// query Could you tell me which band Cc1ccc(S(=O)(=O)NC(=O)CCC(=O)N2N=C(c3ccc(Cl)cc3)CC2c2ccc3nccnc3c2)cc1 (stereo not shown) belongs to?
// result middle bin

// query Please indicate the class for COc1ccc(C2CC(c3ccc(Cl)cc3)=NN2C(=O)CCC(=O)O)c(OC)c1 (stereo not shown) based on its inhibition at 10 µM.
// result bottom bin

// query Exam item: assign COc1cccc(-c2cccc(C3=NN(C(=O)CCC(=O)O)C(c4ccc5nccnc5c4)C3)c2)c1 (stereo not shown) to the correct category.
// result bottom bin

// query Exercise: read the entry CC(C)Oc1ccc(-c2ccc(C3=NN(C(=O)CCC(=O)O)C(c4ccc5nccnc5c4)C3)cc2)cc1 (stereo not shown) and state which class it falls under.
// result top bin

###

tested on: methane production in rumen fluid; test: Rumen in vitro (RIV) assay, methane production from rumen fluid incubations; assay type: cell-based, cattle; settings: Bos taurus, 10 μM; read-out: RIV % methane reduction +/− SD
Value kind: inhibition at 10 µM (%)
Numbers only, in %.

Previously resolved entries follow.
>  <Compound>
O=C(O)CCC(=O)N1N=C(c2ccc(-c3ccc(C(F)(F)F)cc3)cc2)CC1c1ccc2nccnc2c1 (stereo not drawn)

>  <inhibition at 10 µM [%]>
37.2

$$$$
>  <Compound>
CS(=O)(=O)NC(=O)CCC(=O)N1N=C(c2ccc(Cl)cc2)CC1c1ccc2nccnc2c1 (stereo not drawn)

>  <inhibition at 10 µM [%]>
70

$$$$
>  <Compound>
O=C(O)c1ccc(N2N=C(c3ccc(Cl)cc3)CC2c2ccc3nccnc3c2)cc1 (stereo not drawn)

>  <inhibition at 10 µM [%]>
20.1

$$$$
>  <Compound>
O=C(O)CCC(=O)N1N=C(c2ccc(-c3ccccc3)cc2F)CC1c1ccc2nccnc2c1 (stereo not drawn)

>  <inhibition at 10 µM [%]>
40.4

$$$$
>  <Compound>
O=C(O)CCC(=O)N1N=C(c2ccc(-c3cccc(Cl)c3)cc2)CC1c1ccc2nccnc2c1 (stereo not drawn)

>  <inhibition at 10 µM [%]>
83.6

$$$$
>  <Compound>
CC(C)Oc1ccc(-c2ccc(C3=NN(C(=O)CCC(=O)O)C(c4ccc5nccnc5c4)C3)cc2)cn1 (stereo not drawn)

>  <inhibition at 10 µM [%]>
33.4

$$$$
>  <Compound>
O=C(O)CCC(=O)N1N=C(c2ccc(-c3ccc(F)cc3)cc2)CC1c1ccc2nccnc2c1 (stereo not drawn)

>  <inhibition at 10 µM [%]>
77.5

$$$$
>  <Compound>
O=C(O)CCC(=O)N1N=C(c2cccc(-c3ccc(OC(F)(F)F)cc3)c2)CC1c1ccc2nccnc2c1 (stereo not drawn)

>  <inhibition at 10 µM [%]>
72.4

$$$$
>  <Compound>
CC(C)S(=O)(=O)NC(=O)CCC(=O)N1N=C(c2cccc(-c3ccccc3)c2)CC1c1ccc2nccnc2c1 (stereo not drawn)

>  <inhibition at 10 µM [%]>
81.8

$$$$
>  <Compound>
O=C(O)CCC(=O)N1N=C(c2ccc(OC(F)(F)F)cc2)CC1c1ccc2nccnc2c1 (stereo not drawn)

>  <inhibition at 10 µM [%]>
22.6

$$$$

Okay, here is my list. What is inhibition at 10 µM for each of these?
1. CS(=O)(=O)NC(=O)c1cccc(N2N=C(c3ccc(Cl)cc3)CC2c2ccc3nccnc3c2)c1 (stereo not drawn)
2. O=C(O)CCC(=O)N1N=C(c2ccc(-c3cc(Cl)cc(Cl)c3)cc2)CC1c1ccc2nccnc2c1 (stereo not drawn)
3. CC(C)S(=O)(=O)NC(=O)CCC(=O)N1N=C(c2ccc(Cl)cc2)CC1c1ccc2nccnc2c1 (stereo not drawn)
4. O=C(O)c1cccc(N2N=C(c3ccc(-c4ccccc4)cc3)CC2c2ccc3nccnc3c2)c1 (stereo not drawn)
5. CS(=O)(=O)NC(=O)CCC(=O)N1N=C(c2ccc(OC(F)(F)F)cc2)CC1c1ccc2nccnc2c1 (stereo not drawn)
6. O=C(O)CCC(=O)N1N=C(c2ccc(-c3ccc(OCC(F)(F)F)cc3)cc2)CC1c1ccc2nccnc2c1 (stereo not drawn)

// result
1: 82.5; 2: 84; 3: 80.4; 4: 88.3; 5: 72.4; 6: 81.4

###

system: methane production in rumen fluid; test: Rumen in vitro (RIV) assay, methane production from rumen fluid incubations; format: cell-based, cattle; conditions: Bos taurus, 10 μM; read-out: RIV % methane reduction +/− SD
Please go through the items and note down their inhibition at 10 µM.
Answers are plain numbers, in %.

>  <Compound>
CC(C)COc1ccc(-c2ccc(C3=NN(C(=O)CCC(=O)O)C(c4ccc5nccnc5c4)C3)cc2)cc1 (centres unmarked)

>  <inhibition at 10 µM [%]>
75.7

$$$$

Field: inhibition at 10 µM. Fill in for each record below.
1. CCCCOc1ccc(-c2ccc(C3=NN(C(=O)CCC(=O)O)C(c4ccc5nccnc5c4)C3)cc2)cc1 (centres unmarked)
2. O=C(O)CCC(=O)N1N=C(c2ccc(Oc3ccccc3)cc2)CC1c1ccc2nccnc2c1 (centres unmarked)

// result
89.4
30.7

For each of the compounds below, note its inhibition at 10 µM.
1. CC(C)S(=O)(=O)NC(=O)CCC(=O)N1N=C(c2ccc(OC(F)(F)F)cc2)CC1c1ccc2nccnc2c1 (centres unmarked)
2. O=C(CCC(=O)N1N=C(c2ccc(Cl)cc2)CC1c1ccc2nccnc2c1)NS(=O)(=O)c1ccccc1 (centres unmarked)
3. CN(C)S(=O)(=O)NC(=O)CCC(=O)N1N=C(c2ccc(-c3ccccc3)cc2)CC1c1ccc2nccnc2c1 (centres unmarked)
4. O=C(O)CCC(=O)N1N=C(c2ccc(-c3ccc(Cl)cc3)cc2)CC1c1ccc2nccnc2c1 (centres unmarked)
5. O=C(O)CCC(=O)N1N=C(c2ccc(-c3ccccc3)cc2)CC1c1ccc2nccnc2c1 (centres unmarked)
6. O=C(O)CCC(=O)N1N=C(c2ccc(-c3cccc(OC(F)(F)F)c3)cc2)CC1c1ccc2nccnc2c1 (centres unmarked)
7. CCC(C)Oc1ccc(-c2ccc(C3=NN(C(=O)CCC(=O)O)C(c4ccc5nccnc5c4)C3)cc2)cc1 (centres unmarked)
8. CC(C)Oc1ccc(-c2ccc(C3=NN(C(=O)CCC(=O)NS(C)(=O)=O)C(c4ccc5nccnc5c4)C3)cc2)cc1 (centres unmarked)

// result
1. 29.7
2. 88.9
3. 70.7
4. 83.7
5. 60.1
6. 91.9
7. 69.2
8. 72.5

Give me inhibition at 10 µM for each of these compounds, listed below.
1. O=C(O)CCC(=O)N1N=C(c2ccc(-c3ccc(SC(F)(F)F)cc3)cc2)CC1c1ccc2nccnc2c1 (centres unmarked)
2. O=C(O)CCC(=O)N1N=C2c3cccc(-c4ccccc4)c3CCC2C1c1ccc2nccnc2c1 (centres unmarked)

// result
1: 32.7; 2: 42.5

Origin of the recorded values: patent US20260053171A1
